# Test system: MALME-3M melanoma
# experiment_summary: NCI tumour cell line growth inhibition, 48 h
# maps each entry to its GI50
measure: GI50

[[record]]
molecule = "CCOc1ccc2c(c1)/C(=C\\C=C\\C1CC(C)C3CC(OCC)CCC3N1CC)CC(C)N2CC (centres undefined)"
experimental_system = "MALME-3M melanoma"
measure = "GI50"
result = "1610 nM"

[[record]]
molecule = "Cc1c2c(nn1-c1ccc(S/N=C3\\SCC(=O)CN3c3ccccc3)cc1)-c1ccccc1CC2"
experimental_system = "MALME-3M melanoma"
measure = "GI50"
result = "> 50000 nM"

[[record]]
molecule = "Nc1nc(Cl)nc2c1ncn2C1O[C@H](CO)[C@@H](O)[C@@H]1F (some centres undefined)"
experimental_system = "MALME-3M melanoma"
measure = "GI50"
result = "43400 nM"

[[record]]
molecule = "COc1ccccc1Nc1nc(-c2cc3cccc(C(F)(F)F)c3oc2=O)cs1"
experimental_system = "MALME-3M melanoma"
measure = "GI50"
result = "1630 nM"


###

# System: OVCAR-5 ovarian
# experiment_summary: NCI tumour cell line growth inhibition, 48 h
Where a SMILES comes first, the peptide text is derived from it. [ ]: non-standard residue; d: D form. The star is where a group is joined. ξ: configuration not given here. X37 = O=C(OCc1ccccc1)[C@@H]1CCC[C@H]1N*; Fmoc = O=C(OCC1c2ccccc2-c2ccccc21)*; ξW = NC(Cc1c[nH]c2ccccc12)C(=O)O; ξF = NC(Cc1ccccc1)C(=O)O; Boc = CC(C)(C)OC(=O)*; ξK = NCCCCC(N)C(=O)O; ξT = CC(O)C(N)C(=O)O; tBu = CC(C)(C)*
Below, each entry is listed with its recorded TGI.
measure: TGI

[[record]]
compound = "NCCOc1ccccn1"
result = "> 100 µM"

[[record]]
compound = "c1ccc(COc2nc3ccc(C45CC6CC(CC(C6)C4)C5)cc3[nH]2)cc1"
result = "> 100 µM"

[[record]]
compound = "CC(OC(C)(C)C)C(NC(=O)C(CCCCNC(=O)OC(C)(C)C)NC(=O)C(Cc1c[nH]c2ccccc12)NC(=O)C(Cc1ccccc1)NC(=O)OCC1c2ccccc2-c2ccccc21)C(=O)NC(Cc1ccccc1)C(=O)N[C@@H]1CCC[C@H]1C(=O)OCc1ccccc1 (some centres undefined) (Fmoc-[ξF][ξW][ξK](Boc)[ξT](tBu)[ξF]-X37)"
result = "> 100 µM"

[[record]]
compound = "Cc1nc2cc(O)c(O)cc2cc1Oc1ccc(NC(=O)Nc2ccc(Cl)c(Cl)c2)cc1"
result = "29.3 µM"


###

TGI values, listed per item
# Tested on: SF-295 CNS
# experiment_summary: NCI tumour cell line growth inhibition, 48 h
measure: TGI

[[record]]
compound = "CC1(C(O)c2ccccc2)CN(C(C)(C)C)C(=O)/C1=C\\Sc1ccccc1 (stereo unspecified)"
result = "> 100 µM"

[[record]]
compound = "CCOC1NC(=O)Oc2ccccc21 (stereo unspecified)"
result = "> 100 µM"

[[record]]
compound = "O=C1NC(=NCCc2ccccc2Cl)S/C1=C\\c1ccc2ncccc2c1"
result = "> 11.2 µM"

[[record]]
compound = "Cc1cc2c(=O)cc(-c3ccc(Cl)cc3)oc2c(C(=O)O)c1C"
result = "> 100 µM"

[[record]]
compound = "CCCCCCCCCCCCC(Br)C(=O)SCCNC(=O)CCNC(=O)[C@@H](O)C(C)(C)COP(=O)(O)OP(=O)(O)OCC1OC(n2cnc3c(N)ncnc32)C(O)C1OP(=O)(O)O (stereo partly specified)"
result = "> 56.5 µM"

[[record]]
compound = "CC(C)(C)c1cc(C(O)(C(F)(F)F)C(F)(F)F)c2c(c1)C(C(F)(F)F)(C(F)(F)F)OC(c1ccccc1)(C(C)(C)C)N2 (stereo unspecified)"
result = "19.8 µM"

[[record]]
compound = "CCOC(=O)c1cc(-c2ccc(OC)c(OC)c2)cn1C"
result = "> 10 µM"

[[record]]
compound = "CCOC(=O)C(=Cc1ccccc1Br)C(=O)OCC"
result = "8.88 µM"

[[record]]
compound = "CCCCOC(=O)N[C@H]1CCc2cc(OC)c(OC)c(OC)c2-c2ccc(SC)c(=O)cc21"
result = "< 0.0361 µM"

[[record]]
compound = "CCOc1ccc(N=NC2C(=O)N(C(=O)CC(=O)Nc3ccc(Cl)cc3)N=C2C)cc1 (stereo unspecified)"
result = "> 100 µM"

[[record]]
compound = "COC(=O)c1oc2c(C(=O)/C=C/c3ccc(OC)cc3)c(OCCCN3CCCCC3)ccc2c1C"
result = "3.93 µM"

[[record]]
compound = "CN(C)CCn1cc(-c2ccc3c(Nc4ccc(CC(=O)Nc5cccc(F)c5)cc4)ncnc3c2)cn1"
result = "> 10 µM"

[[record]]
compound = "O=C(CC1C(=O)Nc2ccccc2S1=O)Nc1cccc(Cl)c1 (stereo unspecified)"
result = "> 100 µM"

[[record]]
compound = "O=C(O)CCCN1CCCCC1"
result = "> 100 µM"

[[record]]
compound = "CCP(=O)(CC)C(Cl)(Cl)C(=O)NC"
result = "> 100 µM"

[[record]]
compound = "CC(=O)c1nc2ccccc2n1CC(=O)c1ccc([N+](=O)[O-])cc1"
result = "36.1 µM"

[[record]]
compound = "O=C(O)/C(Cl)=C(/Cl)C(=O)Nc1cccc(Cl)c1"
result = "> 62.2 µM"

[[record]]
compound = "COc1ccc(NS(=O)C2CCCCC2)cc1 (stereo unspecified)"
result = "> 100 µM"

[[record]]
compound = "CCc1nnc2sc(-c3ccc(-c4ccc(Cl)cc4Cl)o3)nn12"
result = "> 100 µM"

[[record]]
compound = "CC(C)(C)[C@@H]1NC(=O)CN1C(=O)OCc1ccccc1"
result = "> 100 µM"

[[record]]
compound = "COC(=O)c1c(-c2ccccc2)csc1NC(=O)c1c(-c2ccccc2)noc1C"
result = "> 21.5 µM"


###

# System: COLO 205 colon
# experiment_summary: NCI tumour cell line growth inhibition, 48 h
Listing: TGI of selected compounds
measure: TGI

[[record]]
compound = "COC(=O)c1c(-c2ccccc2)csc1NC(=O)c1c(-c2ccccc2)noc1C"
result = "> 100 µM"

[[record]]
compound = "CC(C)C[C@H](NC(=O)[C@@H](Cc1cccc2ccccc12)NC(=O)N1CCOCC1)B(O)O"
result = "36.4 µM"

[[record]]
compound = "COc1ccc2c(c1)CC[C@@H]1C2CC[C@]2(C)OC(=O)CCC12 (stereo not given in full)"
result = "> 100 µM"

[[record]]
compound = "C=C1C(=O)O[C@H]2C1C[C@@H](O)[C@@]1(C)OC1CC[C@@]1(C)O[C@H]21 (stereo not given in full)"
result = "25.8 µM"

[[record]]
compound = "CCc1nnc2sc(-c3ccc(-c4ccc(Cl)cc4Cl)o3)nn12"
result = "> 100 µM"

[[record]]
compound = "COc1ccc(N(C(=O)OC(C)(C)C)[C@@H]2C(C)=C[C@H]([S@@](=O)c3ccc(C)cc3)[C@@H]3C(=O)N(C)C(=O)[C@@H]32)cc1"
result = "31 µM"

[[record]]
compound = "Nc1nc(Cl)cc(NCC2(CO)CC(CCCCc3ccccc3)C2)n1 (stereo not given)"
result = "> 100 µM"

[[record]]
compound = "C[Si](C)(C)C#C[I+]c1ccccc1"
result = "32.9 µM"

[[record]]
compound = "COc1cc2c(/C=C3\\C(=O)Nc4ccc(Br)cc43)c(Cl)n(C)c2cc1C"
result = "5.43 µM"

[[record]]
compound = "Cc1ccc(S(=O)/C=C(\\NC(=O)OCc2ccccc2)C(F)(F)F)cc1 (stereo not given)"
result = "> 100 µM"


###

# System: HCT-116 colon
# experiment_summary: NCI tumour cell line growth inhibition, 48 h; in the data active means GI50 below about 0.43 µM; inactive means the rest
Classes used: active, inactive

[[record]]
compound = "CC(C)[C@]12O[C@H]1[C@@H]1O[C@]13[C@]1(O[C@H]1C[C@H]1c4c(C(=O)c5ccccc5)oc(OC(=O)c5ccccc5)c4CC[C@@]13C)[C@@H]2O"
label = "active"

[[record]]
compound = "COc1cc(/C=C/C(=O)c2ccc(Nc3nc(Nc4ccc(F)cc4)nc(Nc4ccc(F)cc4)n3)cc2)cc(OC)c1OC"
label = "inactive"

[[record]]
compound = "CC1=C(C)C(=O)C(C(C)C2=C(C)C(=O)C(C)=C(C)C2=O)=C(C)C1=O"
label = "inactive"

[[record]]
compound = "CC1SC(c2cccs2)N(NC(=O)C(O)c2ccccc2)C1=O (configuration not stated)"
label = "inactive"

[[record]]
compound = "O=C1c2cccc3cccc(c23)C(=O)N1CCCCOc1ccc(-c2nc3ccc(N4CCOCC4)cc3[nH]2)cc1"
label = "inactive"

[[record]]
compound = "C=C1C(=O)O[C@H]2[C@H]1CC/C(Cn1cc(CCC)nn1)=C\\CC[C@@]1(C)O[C@@H]21"
label = "inactive"

[[record]]
compound = "O=C(Nc1ccccc1Cl)c1ccc(NC2=C(Cl)C(=O)N(Cc3ccccc3)C2=O)cc1"
label = "inactive"

[[record]]
compound = "NC(=O)NC(=O)CI"
label = "inactive"

[[record]]
compound = "CN(C)/[N+]([O-])=N/Oc1cc(Nc2ccc(C(=O)O)cc2)c([N+](=O)[O-])cc1[N+](=O)[O-]"
label = "inactive"

[[record]]
compound = "Cc1ccc(/C=C(\\C#N)n2nnc3cc(F)c(F)cc32)cc1"
label = "inactive"

[[record]]
compound = "O=C1c2cccnc2-c2nc(-c3ccc([N+](=O)[O-])cc3)cc3c2c1nc1ccccc13"
label = "inactive"

[[record]]
compound = "Cc1c2c(nn1-c1ccc(S/N=C3\\SCC(=O)CN3c3ccccc3)cc1)-c1ccccc1CC2"
label = "inactive"

[[record]]
compound = "Nc1nc(Cl)nc2c1ncn2C1O[C@H](CO)[C@@H](O)[C@@H]1F (some centres not stated)"
label = "active"

[[record]]
compound = "O=C1NC(=NCc2ccccn2)S/C1=C\\c1ccc2ncccc2c1"
label = "inactive"

[[record]]
compound = "Cc1ccccc1NC(=O)NC(CC(N)=O)c1ccc2c(c1)nc(-c1cccc(Oc3ccc(C(C)(C)C)cc3)c1)n2CCCN1CCCCC1C (configuration not stated)"
label = "inactive"

[[record]]
compound = "O=Nc1c(-c2cccc([N+](=O)[O-])c2)nc2ncccn12"
label = "inactive"

[[record]]
compound = "COc1ccc(C2CC(c3cc(OC)c(OC)c(OC)c3)=NN2)cc1 (configuration not stated)"
label = "inactive"


The reported measurements were obtained from PubChem BioAssay (NCI).
